particulars: [M+H]+; instrument: TW; calibrated with polyalanine and drug standards
Listing: collision cross section (N2) of selected molecules
// note: answer is a bare numeric in Å²

Known results for molecules:
{"columns": ["molecule", "measure", "readout unit", "experimental value"],
 "data": [
  ["COc1cc(OC)c2c(=O)c(-c3ccc4c(c3)OCO4)coc2c1 [DERRUSTONE]", "collision cross section (N2)", "Å²", 169.8],
  ["CC1=NS(=O)(=O)c2cc(Cl)ccc2N1 [DIAZOXIDE]", "collision cross section (N2)", "Å²", 143.7],
  ["Cc1c2oc3c(C)ccc(C(=O)N[C@@H]4C(=O)N[C@H](C(C)C)C(=O)N5CCC[C@H]5C(=O)N(C)CC(=O)N(C)[C@@H](C(C)C)C(=O)O[C@@H]4C)c3nc-2c(C(=O)N[C@@H]2C(=O)N[C@H](C(C)C)C(=O)N3CCC[C@H]3C(=O)N(C)CC(=O)N(C)[C@@H](C(C)C)C(=O)O[C@@H]2C)c(N)c1=O [DACTINOMYCIN]", "collision cross section (N2)", "Å²", 341.2]
]}

Exercise: What measured collision cross section (N2) goes with CC(=O)[C@H]1CC[C@H]2[C@@H]3CCC4=CC(=O)CC[C@]4(C)[C@H]3CC[C@]12C [PROGESTERONE] ?
Key: 177.8

Exercise: How about C=C(C)C1Cc2c(ccc3c(=O)c4c(oc23)COc2cc(OC)c(OC)cc2-4)O1 (stereo unspecified) [DEHYDROROTENONE] ?
Key: 192.3

Exercise: What do you get for Cc1[nH]c2ccccc2c1CN(C)C [2-METHYL GRAMINE] ?
Key: 140.6
